Test: probe aNOTCH2 binding on compound microarray – biochemical, small-molecule microarray, 635/667 nm fluorescence, primary screen (AID 1121);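 further: score merges feature fluorescence read at 667 nm with its signal to noise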
Conditions: higher = more signal
MEASUREMENT_LABEL: composite z-score
Field format: numeric only.

Recorded composite z-score, per entry:
# COMPOUND, composite z-score
measured = [
    ("O=C1NC(=O)C2C1C=CC(C(O)c1ccc(I)cc1)N2Nc1ccccn1 (stereo unspecified)", -0.0026),
    ("NCCCCCNC(=O)[C@H]1C[C@H]2C(=O)N3CCC[C@H]3C(=O)N2[C@H]1c1ccc(O)cc1", -0.0024),
    ("COc1ccccc1CN1C(=O)c2ccccc2[C@@]2(Cc3ccccc3N(CCCN(C)C)C2=O)[C@@H]1c1ccc(CO)cc1", 0.0687),
]

Exercise: Record request: composite z-score value, item COc1ccc(C(=O)Nc2cccc(CN3C(=O)[C@]4(O[C@H](CCn5cc(CCO)nn5)[C@@H]([Si](C)(C)c5ccc(OC)cc5)[C@@H]4C)c4ccccc43)c2)cc1
Solution: -0.0142

Exercise: Param item = Cc1ccc(S(=O)(=O)N2C[C@@H](C(=O)O)[C@H](Sc3ccccc3)C[C@H]2c2ccccc2)cc1 ; retrieve measured composite z-score.
Solution: 0.0456

Exercise: For the compound COCCOC(=O)N1C(=O)[C@@]2(c3cc(C#CC4=CCCCC4)ccc31)[C@H](C(N)=O)[C@H]1C(=O)O[C@H](c3ccccc3)[C@H](c3ccccc3)N1[C@@H]2c1ccc(O)cc1 , what composite z-score is on record?
Solution: 0.117

###

Entries annotated with measured composite z-score
Target: Focal adhesion kinase 1 (Homo sapiens)
Assay: PTK2 protein binding on printed compound slides – biochemical, small-molecule microarray, 635/667 nm fluorescence, BSA, DTT, primary screen (AID 1130);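 further: composite of spot emission at 667 nm and signal to noise over triplicate slides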
Conditions: 635 nm fluorescence, higher = more signal
Reply briefly: the number, and no unit.

# COMPOUND, MEASUREMENT_LABEL, MEASURED_NUMBER
rows = [
    ("O=C(O)C1N=C(c2ccc(OCCCO)cc2)N(c2ccccc2)O1 (centres undefined)", "composite z-score", 0.817),
    ("COc1ccc([Si](C)(C)[C@H]2[C@H](CCO)O[C@@]3(C(=O)N(Cc4ccccc4)c4ccc(N5CCCCC5=O)cc43)[C@@H]2C)cc1", "composite z-score", 0.208),
    ("NCCCCCNC(=O)[C@H]1C[C@H]2C(=O)N[C@@H](Cc3ccccc3)C(=O)N2[C@H]1c1cccc(OCCO)c1", "composite z-score", 0.163),
    ("COCCOC(=O)N1C(=O)[C@@]2(c3cc(C#CC4=CCCCC4)ccc31)[C@H](c1ccc(OCCO)cc1)N1[C@H](c3ccccc3)[C@H](c3ccccc3)OC(=O)[C@H]1[C@@H]2C(=O)N1CCc2cc(OC)c(OC)cc2C1", "composite z-score", 0.647),
    ("O=C(O)[C@H](Cc1ccccc1)n1cc(-c2ccccc2)nn1", "composite z-score", 0.218),
]

Exercise: Any idea what its composite z-score is? The compound is C=C(CCCC)C(=O)CC[C@H](OC(=O)c1cccnc1)c1ccc(OCCO)cc1
Solution: 0.819

Exercise: Please look up its composite z-score: COc1ccc([C@H]2C[C@H]3C(Br)=C[C@@]2(CO)C(=O)[C@]32CO2)cc1
Solution: 0.125

Exercise: Record request: composite z-score value, item COC(=O)[C@@]1(Cc2ccccc2)[C@H]2c3cc(C(=O)N4CCCC4)n(Cc4c(CO)[nH]cc(C)c4=O)c3C[C@H]2CN1C(=O)c1ccccc1
Solution: 0.777

Exercise: What value of composite z-score has been recorded for this entry: COC(=O)[C@@]1(CCC(=O)OC(C)(C)C)N=C(c2ccc(OCCCO)cc2)O[C@H]1c1ccccc1
Solution: 0.517

Exercise: Which measured composite z-score value corresponds to COc1ccc([Si](C)(C)[C@@H]2[C@@H](CC(=O)N3Cc4ccccc4C[C@H]3CO)O[C@]3(C(=O)N(Cc4cccc(N5CCC5=O)c4)c4ccccc43)[C@H]2C)cc1 ?
Solution: 0.366

Exercise: GET /values?readout=composite z-score&item= O=C1C2C=CC(C(O)c3ccc(-c4ccccc4)s3)N(Nc3ccccc3)C2C(=O)N1c1ccccc1 (centres undefined)
Solution: 0.473

Exercise: # input compound: CN(C)CCCCCCNC(=O)[C@@H]1C[C@@H]2C(=O)N[C@@H](CCCC[N+](C)(C)C)C(=O)N2[C@@H]1c1ccc(O)cc1 ; wanted: its composite z-score
Solution: 0.678

Exercise: Would you kindly share the measured composite z-score for CCOC(=O)C[C@H]1[C@H](OC(=O)c2ccc(-c3ccccc3)cc2)[C@@H](NC(=O)c2ccccc2)c2cc(OCCCO)ccc2N1C(=O)c1ccc2ccccc2n1 ?
Solution: 0.426

Exercise: What value of composite z-score has been reported for the following compound? C=CCNC(=O)[C@@H]1[C@H]2C(=O)O[C@H](c3ccccc3)[C@H](c3ccccc3)N2[C@H](c2ccc(OCCO)cc2)[C@@]12C(=O)N(C(=O)OCCOC)c1ccc(C#CCC(C(=O)OC)C(=O)OC)cc12
Solution: 1.31
